READOUT TYPE: melting point

COC(=O)c1ccc(COCC(=O)C23CC4CC(CC(C4)C2)C3)cc1: 88.7 °C
O=C(NCc1ccc(Cl)cc1)C12CC3CC(CC(C3)C1)C2: 150 to 153 °C
O=C(NCc1ccc(Cl)cc1)C1CCN(C(=O)C23CC4CC(CC(C4)C2)C3)CC1: 150 to 152 °C
Cc1ccc(CNC(=O)C23CC4CC(CC(C4)C2)C3)cc1: 137 to 140 °C
CC1(C(=O)NCc2cccs2)CC1: 70 to 71 °C
O=C(NCCc1cccs1)[C@H]1CC2C=CC1C2 (stereo partly drawn): 71 to 72 °C

Record `CN(Cc1cn(C23CC4CC(CC(C4)C2)C3)nn1)Cc1cccs1` . Reported melting point: 66 to 68 °C

Briefly, melting point measured for `CSc1ccc(CN(C)C(=O)C23CC4CC(CC(C4)C2)C3)s1` : 73 to 75.5 °C

For record `O=C(N1CCN(c2ccc(Cl)cc2)CC1)C12CC3CC(CC(C3)C1)C2` the listed melting point is 183 to 185 °C

The compound `CN(CC(=O)C12CC3CC(CC(C3)C1)C2)Cc1cccs1.Cl` showed melting point equal to 201 to 203 °C

So for `O=C(O)c1ccc(OCC(=O)C23CC4CC(CC(C4)C2)C3)cc1` , the logged melting point turned out to be 185.2 °C

Form: compound = Cn1ccnc1[S+]([O-])CC(=O)C12CC3CC(CC(C3)C1)C2 (stereo not drawn) ; melting point = 86 to 89 °C

Data point: `O=C(O)Cc1ccc(OCC(=O)C23CC4CC(CC(C4)C2)C3)cc1` ; melting point = 153.4 °C

// CC(=O)Nc1ccc([S+]([O-])CC(=O)C23CC4CC(CC(C4)C2)C3)cc1 (stereo not drawn) : melting point value = 173.5 to 175.5 °C

// recorded melting point for `CN(Cc1cccnc1)C(=O)CC12CC3CC(CC(C3)C1)C2` : 67 to 68.5 °C

So, `O=C(CSc1cccs1)C12CC3CC(CC(C3)C1)C2` ? Its melting point was 69 to 72 °C

So for `CC(C)(C)c1ccc(CS(=O)(=O)CC(=O)C23CC4CC(CC(C4)C2)C3)cc1` , the logged melting point turned out to be 127.7 °C

Lab note: `Cc1nc2cc(NCC(=O)C(C)(C)C)ccc2s1` gave melting point of 108 to 111 °C

# melting point of CN(Cc1cccs1)C(=O)[C@H]1CC2C=CC1C2 (stereo partly drawn) = 74 to 75 °C

Sample `O=S(=O)(NCC12CC3CC(CC(C3)C1)C2)c1cc(Cl)ccc1Cl` ; melting point observed: 197 to 198 °C

Looking up `O=C(N1CCN(c2ccccn2)CC1)C12CC3CC(CC(C3)C1)C2` , I see its melting point listed as 137 to 140 °C
